assay: Clearance in Wistar Han rat at 2 mg/kg,iv by LC-MS/MS analysis; format: ADME, organism-based; details: in vivo
assay-endpoint: clearance (mL/min/kg)
Give just the number in mL/min/kg; leave the unit off.

Data request: Please look at this compound and report its clearance: "CCOC(=O)C1=C(CN2CCN3C(=O)N(CC(C)(C)C(=O)O)C[C@@H]3C2)NC(c2nccs2)=N[C@H]1c1cccc(F)c1C"
Data returned: 30.5

----------
assay: AUClast in minipig at 2 mg/kg,iv by LC-MS/MS analysis; assay type: ADME, organism-based, Sus scrofa domesticus; parameters: dose 2 mg/kg, route iv; settings: pig, in vivo
assay-endpoint: AUC(0-t) (ng·h/mL)
Give just the number in ng·h/mL; leave the unit off.

Data request: Please look at this compound and report its AUC(0-t): "CCOC(=O)C1=C(CN2CCN3C(=O)N(CC(C)(C)C(=O)O)C[C@@H]3C2)NC(c2nccs2)=N[C@H]1c1cccc(F)c1C"
Data returned: 1370
